Values were extracted from patent US11174251B2.

Molecular target: JAK3 (Homo sapiens, UniProt P52333)
Construct: The Ramos B-cell line was acquired from ATCC (ATCC Catalog No. CRL-1596)
Sequence (P52333 whole entry): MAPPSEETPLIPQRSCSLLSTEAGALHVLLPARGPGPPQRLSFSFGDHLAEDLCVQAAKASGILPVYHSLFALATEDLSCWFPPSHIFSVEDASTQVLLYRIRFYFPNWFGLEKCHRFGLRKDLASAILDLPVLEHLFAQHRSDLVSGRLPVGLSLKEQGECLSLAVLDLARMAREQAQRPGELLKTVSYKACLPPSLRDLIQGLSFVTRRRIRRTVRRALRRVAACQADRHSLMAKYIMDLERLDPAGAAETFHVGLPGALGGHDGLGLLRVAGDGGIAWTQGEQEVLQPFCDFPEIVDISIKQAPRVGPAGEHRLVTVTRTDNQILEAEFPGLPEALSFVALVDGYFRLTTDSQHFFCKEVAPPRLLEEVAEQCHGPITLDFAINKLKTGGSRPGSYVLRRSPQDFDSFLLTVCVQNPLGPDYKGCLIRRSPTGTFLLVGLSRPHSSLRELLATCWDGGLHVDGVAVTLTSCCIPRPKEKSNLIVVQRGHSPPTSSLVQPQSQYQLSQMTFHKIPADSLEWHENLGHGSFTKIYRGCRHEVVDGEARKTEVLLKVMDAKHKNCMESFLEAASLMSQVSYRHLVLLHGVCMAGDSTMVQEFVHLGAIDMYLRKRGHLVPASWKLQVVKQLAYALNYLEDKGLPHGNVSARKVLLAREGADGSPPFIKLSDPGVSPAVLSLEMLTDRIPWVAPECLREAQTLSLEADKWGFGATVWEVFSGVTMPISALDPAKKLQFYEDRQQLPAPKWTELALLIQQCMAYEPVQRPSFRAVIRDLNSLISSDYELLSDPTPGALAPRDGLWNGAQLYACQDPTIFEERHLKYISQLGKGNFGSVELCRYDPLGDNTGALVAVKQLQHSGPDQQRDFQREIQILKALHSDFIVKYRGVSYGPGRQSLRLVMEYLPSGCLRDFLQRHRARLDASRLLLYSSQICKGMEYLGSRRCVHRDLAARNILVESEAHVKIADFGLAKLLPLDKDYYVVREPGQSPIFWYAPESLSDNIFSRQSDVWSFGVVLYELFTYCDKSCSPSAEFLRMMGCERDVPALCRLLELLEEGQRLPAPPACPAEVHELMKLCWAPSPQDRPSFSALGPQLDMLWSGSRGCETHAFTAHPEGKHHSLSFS
Assay: Assay for CD23 expression on Ramos B-cells stimulated by IL-4 (Table IV: ability to inhibit JAK3 activity)
Settings: tested under conditions described in Example 3 (so in the source)
pIC50: −log10 of the molar value. Where a name gives a salt, the structure may show the parent alone.
Parameter measured: pIC50

Previously resolved entries follow.
>  <Molecule>
COc1c(F)ccc(Nc2ncc(F)c(Nc3cc(C)c4oc(=O)[nH]c4c3)n2)c1F [Compound I-192, trifluoroacetate salt]

>  <pIC50>
5.30 to 6.30

$$$$
>  <Molecule>
Cc1cnc(Nc2cc(C)c(C)c(C)c2)nc1Nc1ccc2oc(=O)n(C)c2c1 [Compound I-126, trifluoroacetate salt]

>  <pIC50>
> 6.30

$$$$
>  <Molecule>
Cc1ccc(Nc2ncc(C)c(Nc3ccc4oc(=O)[nH]c4c3)n2)nc1C

>  <pIC50>
5.30 to 6.30

$$$$

Reported pIC50, molecule COc1cccc(Nc2ncc(Cl)c(Nc3ccc4oc(=O)[nH]c4c3)n2)c1F [Compound I-21, trifluoroacetate salt] : ____ > 6.30

Reported pIC50, molecule "COc1cccc(Nc2ncc(C)c(Nc3ccc4oc(=O)[nH]c4c3)n2)c1F" : ____ > 6.30

Reported pIC50, molecule O=C(Nc1ccccc1)c1ccc(Nc2ncc(F)c(Nc3ccc4oc(=O)[nH]c4c3)n2)cc1C(F)(F)F [Compound I-166, formate salt] : ____ > 6.30

Reported pIC50, molecule O=c1[nH]c2cc(Nc3nc(Nc4ccccc4)ncc3[N+](=O)[O-])ccc2o1 [Compound I-41, trifluoroacetate salt] : ____ 5.00 to 5.30

---

Biological target: JAK3 (Homo sapiens)
Construct: The Ramos B-cell line was acquired from ATCC (ATCC Catalog No. CRL-1596)
Assay: Assay for CD23 expression on Ramos B-cells stimulated by IL-4 (Table IV: ability to inhibit JAK3 activity)
Details: tested under conditions described in Example 3 (so in the source)
Structures can show the parent of a compound that is named as a salt.
Below, each of the compounds is paired with its reported IC50 value.

Previously resolved entries follow.
>  <Compound>
Cc1cnc(Nc2ccc(N(C)C)cc2)nc1Nc1ccc2oc(=O)[nH]c2c1

>  <IC50>
< 0.5 µM

$$$$
>  <Compound>
Cc1cnc(N(C)c2ccccc2)nc1Nc1ccc2oc(=O)[nH]c2c1

>  <IC50>
0.5 to 5 µM

$$$$
>  <Compound>
COc1cc(C)cc(Nc2ncc(F)c(Nc3cc(C)c4oc(=O)[nH]c4c3)n2)c1 [Compound I-177, trifluoroacetate salt]

>  <IC50>
> 10 µM

$$$$

Next item in the queue.
Reported IC50, compound "COc1cc(Nc2ncc(F)c(Nc3ccc4oc(=O)[nH]c4c3)n2)cc(C(F)(F)F)c1" : ____ < 0.5 µM

---

Below, each of the compounds is paired with its reported pIC50 value.
Molecular target: JAK3 (Homo sapiens)
Construct: The Ramos B-cell line was acquired from ATCC (ATCC Catalog No. CRL-1596)
Test: Assay for CD23 expression on Ramos B-cells stimulated by IL-4 (Table IV: ability to inhibit JAK3 activity)
Settings: tested under conditions described in Example 3 (so in the source)
pIC50: −log10 of the molar value. Counter-ions that a name gives are not always drawn.

Previously resolved entries follow.
>  <Compound>
COc1ccc(Nc2ncc(C)c(Nc3ccc4oc(=O)[nH]c4c3)n2)c(F)c1 [Compound I-75, trifluoroacetate salt]

>  <pIC50>
> 6.30

$$$$
>  <Compound>
COC(=O)c1c(C)cc(Nc2ncc(C)c(Nc3ccc4oc(=O)[nH]c4c3)n2)cc1C [Compound I-138]

>  <pIC50>
> 6.30

$$$$
>  <Compound>
Cc1cnc(Nc2ccc(Br)cc2F)nc1Nc1ccc2oc(=O)[nH]c2c1 [Compound I-28]

>  <pIC50>
> 6.30

$$$$
>  <Compound>
Cc1cnc(Nc2ccc3c(c2)COC3=O)nc1Nc1ccc2oc(=O)[nH]c2c1 [II-10]

>  <pIC50>
> 6.30

$$$$
>  <Compound>
COc1ccc(Nc2ncc(F)c(Nc3ccc4oc(=O)[nH]c4c3)n2)cc1OCC(=O)NC1CC1 [Compound I-213]

>  <pIC50>
> 6.30

$$$$
>  <Compound>
COc1cc(Nc2ncc(Cl)c(Nc3ccc4oc(=O)[nH]c4c3)n2)cc(C)c1C [Compound I-52]

>  <pIC50>
> 6.30

$$$$
>  <Compound>
Cc1cnc(Nc2ccc3c(c2)COC3)nc1Nc1ccc2oc(=O)[nH]c2c1 [II-9]

>  <pIC50>
> 6.30

$$$$
>  <Compound>
Cc1cnc(Nc2cc(C)c(C)c(C)c2)nc1Nc1ccc2oc(=O)n(COP(=O)(OCCN(C)C)OCCN(C)C)c2c1 [Compound I-134]

>  <pIC50>
< 5.00

$$$$
>  <Compound>
COc1cc(Nc2ncc(F)c(Nc3ccc4oc(=O)[nH]c4c3)n2)cc(C)c1F [Compound I-181, trifluoroacetate salt]

>  <pIC50>
> 6.30

$$$$
>  <Compound>
NS(=O)(=O)c1cccc(Nc2ncc(F)c(Nc3cc(F)c4oc(=O)[nH]c4c3)n2)c1 [Compound I-174, trifluoroacetate salt]

>  <pIC50>
> 6.30

$$$$

Reported pIC50, compound COc1cc(Nc2ncc(Cl)c(Nc3ccc4oc(=O)[nH]c4c3)n2)cc(C(F)(F)F)c1 [Compound I-12] : ____ > 6.30

Reported pIC50, compound Cc1cnc(Nc2ccc(CC=O)cc2)nc1Nc1ccc2oc(=O)[nH]c2c1 [Compound I-30] : ____ > 6.30

Reported pIC50, compound Cc1cc(Nc2ncc(C(=O)O)c(Nc3ccc4oc(=O)[nH]c4c3)n2)cc(C)c1C [Compound I-49, trifluoroacetate salt] : ____ < 5.00

Reported pIC50, compound COC(=O)c1cc(Nc2ncc(C)c(Nc3ccc4oc(=O)[nH]c4c3)n2)cc(C)c1F [Compound I-153] : ____ > 6.30

Reported pIC50, compound C=Cc1cccc(Nc2ncc(C)c(Nc3ccc4oc(=O)[nH]c4c3)n2)c1 [Compound I-65, trifluoroacetate salt] : ____ > 6.30
